Origin of the recorded values: ChEMBL document CHEMBL2216752

target: Carnitine O-palmitoyltransferase 1, muscle isoform (Homo sapiens); assay: Inhibition of human CPT1B
PROPERTY: IC50 (µM)

COMPOUND	PROPERTY	UOM	VAL
COc1ccc(Cl)cc1S(=O)(=O)N1CC(C(=O)O)Oc2ccc(C(=O)Nc3cccc(F)c3)cc21 (stereo not given)	IC50	µM	3.4
O=C(O)C(=O)c1ccc(O)cc1	IC50	µM	60.3
CCCCCCCCCCCCCCNC(=O)N[C@H](CC(=O)[O-])C[N+](C)(C)C	IC50	µM	5.4
CCCCCCCCCCCCCCCC(=O)N[C@H](CC(=O)[O-])C[N+](C)(C)C [PALMITOYLAMINOCARNITINE]	IC50	µM	21.7

====

molecular target: Carnitine O-palmitoyltransferase 2, mitochondrial (Rattus norvegicus, UniProt P18886); experiment: Inhibition of rat CPT2 using [3H]carnitine by radiometric assay
Sequence (P18886 whole entry): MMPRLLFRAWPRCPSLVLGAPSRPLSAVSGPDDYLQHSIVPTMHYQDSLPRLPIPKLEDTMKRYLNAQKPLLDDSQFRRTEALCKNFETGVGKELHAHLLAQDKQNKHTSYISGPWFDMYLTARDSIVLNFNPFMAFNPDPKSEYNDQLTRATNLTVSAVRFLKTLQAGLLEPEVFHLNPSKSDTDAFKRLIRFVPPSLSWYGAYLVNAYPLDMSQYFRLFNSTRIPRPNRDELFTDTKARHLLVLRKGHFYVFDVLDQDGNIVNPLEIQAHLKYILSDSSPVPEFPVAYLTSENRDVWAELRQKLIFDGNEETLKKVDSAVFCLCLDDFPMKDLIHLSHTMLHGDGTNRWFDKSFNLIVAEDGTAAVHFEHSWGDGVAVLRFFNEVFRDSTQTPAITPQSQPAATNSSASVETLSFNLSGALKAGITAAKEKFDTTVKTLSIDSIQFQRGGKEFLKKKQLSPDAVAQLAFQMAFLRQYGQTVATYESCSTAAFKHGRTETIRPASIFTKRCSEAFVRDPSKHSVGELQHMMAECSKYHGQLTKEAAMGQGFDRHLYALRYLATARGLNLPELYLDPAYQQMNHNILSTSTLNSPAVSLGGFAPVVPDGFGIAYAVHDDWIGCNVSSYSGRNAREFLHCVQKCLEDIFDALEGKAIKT
pIC50: −log10 of the molar value.

COMPOUND	ASSAYED_SYSTEM	pIC50
CCCCCCCCCCCCCCCC1(O)C[N+](C)(C)CC(CC(=O)[O-])O1 (stereo in doubt; (+)-27)	Carnitine O-palmitoyltransferase 2, mitochondrial (Rattus norvegicus, UniProt P18886)	4.32
CCCCCCCCCCCCCCCC1(O)C[N+](C)(C)CC(CC(=O)[O-])O1 (stereo in doubt; (-)-27)	Carnitine O-palmitoyltransferase 2, mitochondrial (Rattus norvegicus, UniProt P18886)	5.17

====

target: Carnitine O-palmitoyltransferase 1, muscle isoform (Rattus norvegicus) (UniProt Q63704); test: Inhibition of CPT1 in rat cardiac mitochondria using [3H]carnitine by radiometric method
Sequence (Q63704 whole entry, looked up, canonical isoform): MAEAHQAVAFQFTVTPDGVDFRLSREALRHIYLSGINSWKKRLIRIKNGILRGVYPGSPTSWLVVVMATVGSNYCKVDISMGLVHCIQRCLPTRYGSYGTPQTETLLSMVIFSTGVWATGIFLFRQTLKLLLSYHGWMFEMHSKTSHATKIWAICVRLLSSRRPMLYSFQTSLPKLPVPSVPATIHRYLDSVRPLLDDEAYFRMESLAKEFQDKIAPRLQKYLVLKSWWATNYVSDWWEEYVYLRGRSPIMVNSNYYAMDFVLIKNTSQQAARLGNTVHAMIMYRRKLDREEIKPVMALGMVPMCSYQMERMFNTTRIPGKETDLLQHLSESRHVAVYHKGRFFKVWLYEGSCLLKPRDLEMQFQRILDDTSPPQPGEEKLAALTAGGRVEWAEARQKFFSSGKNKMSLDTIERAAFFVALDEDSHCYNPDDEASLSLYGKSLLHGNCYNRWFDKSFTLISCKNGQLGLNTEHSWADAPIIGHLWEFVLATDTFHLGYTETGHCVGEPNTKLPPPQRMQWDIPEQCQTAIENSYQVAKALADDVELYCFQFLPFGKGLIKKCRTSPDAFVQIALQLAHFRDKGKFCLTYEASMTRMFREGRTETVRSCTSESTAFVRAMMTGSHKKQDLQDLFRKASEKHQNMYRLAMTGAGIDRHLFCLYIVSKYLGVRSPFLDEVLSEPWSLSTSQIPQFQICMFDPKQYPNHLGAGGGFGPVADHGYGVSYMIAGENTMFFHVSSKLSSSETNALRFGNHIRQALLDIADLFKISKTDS
pIC50: −log10 of the molar value.

COMPOUND	ASSAYED_SYSTEM	pIC50
C1CCC(C(CC2CCCCN2)C2CCCCC2)CC1 (stereo unspecified)	Carnitine O-palmitoyltransferase 1, muscle isoform (Rattus norvegicus) (UniProt Q63704)	4.11

====

Measured IC50 by item
target: Carnitine O-palmitoyltransferase 1, muscle isoform (Homo sapiens, UniProt Q92523); assay: Inhibition of human CPT1B
Sequence (Q92523 whole entry, canonical isoform): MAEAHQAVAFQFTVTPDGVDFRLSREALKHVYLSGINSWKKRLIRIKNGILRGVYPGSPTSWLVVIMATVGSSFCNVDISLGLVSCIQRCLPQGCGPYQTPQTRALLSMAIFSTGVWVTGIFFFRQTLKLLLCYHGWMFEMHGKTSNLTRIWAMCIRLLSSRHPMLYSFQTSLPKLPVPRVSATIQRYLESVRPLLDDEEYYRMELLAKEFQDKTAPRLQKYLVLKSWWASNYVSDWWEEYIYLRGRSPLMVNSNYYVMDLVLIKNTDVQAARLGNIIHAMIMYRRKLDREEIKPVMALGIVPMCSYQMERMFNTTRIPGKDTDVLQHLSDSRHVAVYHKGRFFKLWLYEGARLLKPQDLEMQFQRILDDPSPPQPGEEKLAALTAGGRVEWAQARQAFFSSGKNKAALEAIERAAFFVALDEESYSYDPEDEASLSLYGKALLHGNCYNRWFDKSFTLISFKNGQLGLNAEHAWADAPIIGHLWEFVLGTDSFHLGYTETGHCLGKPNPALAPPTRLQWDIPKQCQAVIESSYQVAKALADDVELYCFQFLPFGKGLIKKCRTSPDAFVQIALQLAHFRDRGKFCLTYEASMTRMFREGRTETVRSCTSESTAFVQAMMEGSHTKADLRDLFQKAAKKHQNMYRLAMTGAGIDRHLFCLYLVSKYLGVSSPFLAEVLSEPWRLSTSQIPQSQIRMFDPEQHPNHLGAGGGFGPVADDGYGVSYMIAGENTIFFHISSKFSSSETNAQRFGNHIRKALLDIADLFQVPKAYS
PROPERTY: IC50 (µM)

1. COc1ccc(C)cc1S(=O)(=O)N1CCCc2ccc(C(=O)Nc3ccc(CC(=O)O)cc3)cc21 3.5
2. O=C(O)C(=O)c1ccc(OCCOc2ccc3ccccc3c2)s1 0.16
3. O=C(O)c1ccc(NC(=O)c2cccc(NS(=O)(=O)c3ccc(Cl)c(Cl)c3)c2)cc1 6.4
4. CCCCCCOc1cccc(OCCCCNC(=O)N[C@H](CC(=O)[O-])C[N+](C)(C)C)c1 85.3

====

experiment: Cytotoxicity against human OCI-AML3 cells assessed as reduction in cell viability; type: functional, cell-based; conditions: OCI-AML-3
PROPERTY: IC50 (µM)

COMPOUND	PROPERTY	VAL
CCOC(=O)C1(CCCCCCOc2ccc(Cl)cc2)CO1 (racemic)	IC50	51

====

assay: Inhibition of carnitine palmitoyltransferase in 24 hrs fasted rat liver mitochondria assessed as palmitoylcarnitine oxidation by radiometry
pIC50: −log10 of the molar value.
PROPERTY: pIC50

1) C[N+](C)(C)C[C@H](N)CC(=O)[O-] 5.27

====

assay: Inhibition of carnitine palmitoyltransferase in rat liver mitochondria assessed as formation of formation of palmitoyl[3H]carnitine from palmitoyl-CoA and [3H]carnitine
PROPERTY: IC50

COMPOUND	VAL
CCCCCCCCCCCCCCC1(C(=O)OC)CO1 (racemic) [METHYL PALMOXIRATE]	46 nM
